B1: PhoQ; a variant is named by its letters at X, in order, P23837 (parent)
chain: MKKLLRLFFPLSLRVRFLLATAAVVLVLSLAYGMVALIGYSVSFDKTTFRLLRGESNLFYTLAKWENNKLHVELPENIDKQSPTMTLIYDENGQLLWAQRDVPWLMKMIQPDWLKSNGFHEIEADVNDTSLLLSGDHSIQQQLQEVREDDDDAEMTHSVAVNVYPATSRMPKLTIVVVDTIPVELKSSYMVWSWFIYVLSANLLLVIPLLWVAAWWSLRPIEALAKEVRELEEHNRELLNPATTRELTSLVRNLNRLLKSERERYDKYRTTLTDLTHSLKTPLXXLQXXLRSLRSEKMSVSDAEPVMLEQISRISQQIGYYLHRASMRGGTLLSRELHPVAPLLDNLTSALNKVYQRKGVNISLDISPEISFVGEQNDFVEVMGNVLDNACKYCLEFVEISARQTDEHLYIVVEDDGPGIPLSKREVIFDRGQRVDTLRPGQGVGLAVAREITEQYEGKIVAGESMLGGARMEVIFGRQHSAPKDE

Variants of: B1
assay: enrichment ratio after two sorts for PhoP signalling (ratio (wild type AVST 3.29)); higher = more functional
condition-summary: with PhoP (E. coli)
Over roughly 140,000 sequences, “enrichment ratio after two sorts for PhoP signalling” has its median near 0; the highest 2% begin near 11. This excerpt belongs to a sample that is enriched for the highest values.
property-measured: enrichment ratio

// sample `GQDA` , its enrichment ratio was ≤ 0.25

// sample `QAFH` , its enrichment ratio was 9.93

// sample `IGTK` , its enrichment ratio was ≤ 0.25

// sample `TQWC` , its enrichment ratio was 29.7

// sample `QEGF` , its enrichment ratio was ≤ 0.25

// sample `LWQD` , its enrichment ratio was ≤ 0.25

// sample `TNWC` , its enrichment ratio was ≤ 0.25

// sample `GCNL` , its enrichment ratio was ≤ 0.25

// sample `GYNI` , its enrichment ratio was ≤ 0.25

// sample `TSMW` , its enrichment ratio was ≤ 0.25

// sample `LCAW` , its enrichment ratio was ≤ 0.25

// sample `EVVH` , its enrichment ratio was ≤ 0.25

// sample `GSTM` , its enrichment ratio was 6.87

// sample `ELLA` , its enrichment ratio was ≤ 0.25

// sample `KLCH` , its enrichment ratio was ≤ 0.25

// sample `FDRQ` , its enrichment ratio was ≤ 0.25

// sample `QGGF` , its enrichment ratio was 18.4

// sample `PFSV` , its enrichment ratio was ≤ 0.25

// sample `VRPL` , its enrichment ratio was ≤ 0.25

// sample `LSQY` , its enrichment ratio was ≤ 0.25

// sample `AQMN` , its enrichment ratio was 38.4

// sample `YRKS` , its enrichment ratio was ≤ 0.25

// sample `KSMV` , its enrichment ratio was ≤ 0.25

// sample `QVGW` , its enrichment ratio was 2.43

// sample `ADCN` , its enrichment ratio was 11.5

// sample `RHQP` , its enrichment ratio was ≤ 0.25

// sample `AIMN` , its enrichment ratio was 5.77

// sample `MQVF` , its enrichment ratio was 1.6

// sample `ILWV` , its enrichment ratio was ≤ 0.25

// sample `NVCN` , its enrichment ratio was ≤ 0.25

// sample `FSMV` , its enrichment ratio was 9.33

// sample `GTCH` , its enrichment ratio was 4.08

// sample `TEWC` , its enrichment ratio was 33.2

// sample `QGFF` , its enrichment ratio was 13.9

// sample `SMQM` , its enrichment ratio was 20.4

// sample `FVVQ` , its enrichment ratio was ≤ 0.25

// sample `LAQM` , its enrichment ratio was ≤ 0.25

// sample `KATM` , its enrichment ratio was ≤ 0.25

// sample `MMEY` , its enrichment ratio was ≤ 0.25

// sample `FLFH` , its enrichment ratio was ≤ 0.25

// sample `AQKN` , its enrichment ratio was ≤ 0.25

// sample `YTCH` , its enrichment ratio was 0.285

// sample `VMKG` , its enrichment ratio was ≤ 0.25

// sample `NQWC` , its enrichment ratio was ≤ 0.25

// sample `GERH` , its enrichment ratio was ≤ 0.25

// sample `NVSG` , its enrichment ratio was ≤ 0.25

// sample `TYQH` , its enrichment ratio was ≤ 0.25

// sample `TQMI` , its enrichment ratio was 6.9

// sample `SHCH` , its enrichment ratio was 16

// sample `KCLN` , its enrichment ratio was ≤ 0.25

// sample `IDFL` , its enrichment ratio was ≤ 0.25

// sample `TQMQ` , its enrichment ratio was 24.2

// sample `EKVT` , its enrichment ratio was ≤ 0.25

// sample `ISCM` , its enrichment ratio was 2.52

// sample `ASPL` , its enrichment ratio was 1.12

// sample `AICN` , its enrichment ratio was 18.7

// sample `KSMI` , its enrichment ratio was ≤ 0.25

// sample `KSQG` , its enrichment ratio was ≤ 0.25

// sample `SRAQ` , its enrichment ratio was ≤ 0.25

// sample `QPGF` , its enrichment ratio was ≤ 0.25

// sample `GCGM` , its enrichment ratio was 2.98

// sample `SQMN` , its enrichment ratio was 25.3

// sample `CYLP` , its enrichment ratio was ≤ 0.25

// sample `SLCH` , its enrichment ratio was 11.6

// sample `YGWR` , its enrichment ratio was ≤ 0.25

// sample `SMRM` , its enrichment ratio was ≤ 0.25

// sample `ATLN` , its enrichment ratio was 17.9

// sample `SHMH` , its enrichment ratio was 3

// sample `NSRQ` , its enrichment ratio was ≤ 0.25

// sample `SGQM` , its enrichment ratio was 14.7

// sample `HLTG` , its enrichment ratio was 1.04

// sample `LMVM` , its enrichment ratio was ≤ 0.25

// sample `GCLT` , its enrichment ratio was 6.49

// sample `IQVQ` , its enrichment ratio was ≤ 0.25

// sample `GAIM` , its enrichment ratio was 15.4

// sample `QEAQ` , its enrichment ratio was ≤ 0.25

// sample `GCIM` , its enrichment ratio was 24.5

// sample `FQQM` , its enrichment ratio was ≤ 0.25

// sample `GCCK` , its enrichment ratio was ≤ 0.25

// sample `GSIM` , its enrichment ratio was 11.6

// sample `QIGF` , its enrichment ratio was 12.5

// sample `QIHF` , its enrichment ratio was ≤ 0.25

// sample `ATCN` , its enrichment ratio was 3.42

// sample `DGLS` , its enrichment ratio was ≤ 0.25

// sample `DYPI` , its enrichment ratio was ≤ 0.25

// sample `PVSG` , its enrichment ratio was ≤ 0.25

// sample `ITCH` , its enrichment ratio was ≤ 0.25

// sample `NEAQ` , its enrichment ratio was ≤ 0.25

// sample `HNCQ` , its enrichment ratio was ≤ 0.25

// sample `KAIM` , its enrichment ratio was ≤ 0.25

// sample `GCLS` , its enrichment ratio was 19.3

Cited source for all entries: a collection of fitness landscapes (doi:10.1126/science.1257360)
